Biological target: human M2 receptor (Homo sapiens (Human))
Sequence (P08172 whole entry): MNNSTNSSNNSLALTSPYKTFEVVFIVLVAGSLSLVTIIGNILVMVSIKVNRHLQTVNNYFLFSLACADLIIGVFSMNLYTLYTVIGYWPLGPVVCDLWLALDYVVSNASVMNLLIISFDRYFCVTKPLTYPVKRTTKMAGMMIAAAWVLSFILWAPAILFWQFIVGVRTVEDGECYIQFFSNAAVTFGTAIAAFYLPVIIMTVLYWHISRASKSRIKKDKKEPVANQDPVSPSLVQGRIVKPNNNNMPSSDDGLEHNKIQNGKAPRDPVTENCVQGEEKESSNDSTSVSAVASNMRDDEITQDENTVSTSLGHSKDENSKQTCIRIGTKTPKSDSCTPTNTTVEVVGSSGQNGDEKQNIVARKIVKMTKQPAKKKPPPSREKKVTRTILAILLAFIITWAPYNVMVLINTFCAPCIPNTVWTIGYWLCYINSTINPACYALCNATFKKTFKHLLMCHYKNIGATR
Experiment: Radioligand (tritiated N-methylscopolamine) binding assay, M2
Settings: CHO cell membranes expressing human M2; 1.5 nM tritiated N-methylscopolamine; 90 min, 37° C.; read-out: Ki against M2 receptor (Table 21, M2)
pKi: −log10 of the molar value.
experimental-endpoint: pKi

Respectfully, I request pKi for each entry included below.
1. C[C@@H]1CN(c2ncc(C(F)(F)F)cn2)CCN1C(=O)NCCC1CCN(Cc2ccccc2)CC1 [3-9]
2. C[C@@H]1CN(c2cc(F)c(F)c(F)c2)CCN1C(=O)NC[C@H](O)C1CCN(Cc2ccccc2)CC1 [3-16]

// result
1. 7.00 to 8.00
2. < 6.00

Each molecule below has a reported value. Please supply its pKi.
1. C[C@@H]1CN(c2cccc(OC(F)(F)F)c2)CCN1C(=O)NCCC1CCN(Cc2ccccc2)CC1 [4-16]
2. C[C@@H]1CN(c2cc(F)c(F)c(F)c2)CCN1C(=O)NCCC1CCN(Cc2cccs2)CC1 [6-26]
3. O=C(NCCC1CCN(Cc2ccccc2)CC1CO)C1CCN(c2ccc(OC(F)(F)F)cc2)CC1 (centres unmarked) [9-62]
4. C[C@@H]1CN(c2ccc(OC(F)(F)F)c(C#N)c2)CCN1C(=O)NCCC1CCN(Cc2ccccc2)CC1 [3-1]
5. C[C@@H]1CN(c2ncc(C(F)(F)F)cc2F)CCN1C(=O)NCCC1CCN(Cc2ccccc2)CC1 [3-10]
6. C[C@@H]1CN(c2cc(F)cc(C#N)c2)CCN1C(=O)NC[C@@H](O)C1CCN(Cc2ccccc2)CC1 [9-5]

// result
6.00 to 7.00
7.00 to 8.00
6.00 to 7.00
7.00 to 8.00
7.00 to 8.00
< 6.00
